List of TGI values.
tested on: OVCAR-3 ovarian; experiment: NCI tumour cell line growth inhibition, 48 h

# compound, reported-relation, TGI / µM
records = [
    ("CC(C)(C)[Si](C)(C)OCC1OC(n2ccc(=O)[nH]c2=O)C(O[Si](C)(C)C(C)(C)C)/C1=C/C#N (stereo not drawn)", ">", 100),
    ("CCOC(=O)c1c(-c2ccc(O)c(OC)c2)c(C#N)c(=S)n(C2OC(CO)C(O)C(O)C2O)c1-c1ccccc1 (stereo not drawn)", ">", 100),
    ("O=C(Cc1ccc(F)c(Cl)c1)Nc1cc(C2(C(F)(F)F)CC2)nn1CC1CCCCC1", ">", 15),
    ("CCn1c(O)c(/C=N/NC(=O)C(C)c2ccc(CC(C)C)cc2)sc1=S (stereo not drawn)", "=", 3.97),
    ("C=C1CC(C#N)(C#N)[C@H]2C3CCCC3C[C@@H]12 (stereo partly drawn) (tested in a mixture with another compound)", "=", 38.9),
    ("COC(=O)/C=C\\C(C#N)(C#N)N=Cc1ccc(C)cc1", "=", 5.82),
    ("CC(=NNC(=S)Nc1ccccc1)c1cccc(C(C)=NNC(=S)Nc2ccccc2)n1", ">", 28.5),
    ("C/C(C[n+]1ccccc1)=N\\N=C(N)N", ">", 100),
    ("COc1ccc(C2OC(c3ccncc3)=NN2C)cc1F (stereo not drawn)", ">", 100),
    ("CC1CC2CCCC(O)=C2C(=O)O1 (stereo not drawn)", ">", 100),
    ("CCN(CC)CCNc1nc(N)c(C#N)c(C#N)c1C#N", ">", 10),
    ("O=C1CCC(c2ccccc2)=NN1c1nsc2ccccc12", ">", 100),
    ("C=C1C(=O)CC2C1CC(=O)/C(C)=C/CCC(C)(O)C2O (stereo not drawn)", "=", 17),
    ("O=C1OCC/C1=N/O", ">", 100),
    ("O=C(O)c1ccccc1CC(Cc1ccc2c(c1)CCC2)C(=O)O (stereo not drawn)", ">", 100),
    ("Nc1ccc(N=Nc2c(S(=O)(=O)O)cc3ccccc3c2S(=O)(=O)O)cc1", ">", 100),
    ("O=C(/C=C/c1ccccc1)Oc1ccc(C(=O)/C=C/c2ccccc2)cc1", "=", 16),
    ("CC1=Cc2cccc(C)c2C(=O)C1=O", "=", 6.78),
    ("Nc1c(C(=O)N/N=C/c2ccccc2)sc(=S)n1-c1ccccc1", ">", 100),
    ("CC1=CCC([C@@](C)(O)CCCC(C)(C)N=C=S)CC1 (stereo partly drawn)", "=", 32.6),
    ("Cc1nn(-c2ccccc2)c2c1C(c1cc3ccccc3nc1Cl)NC(=O)N2 (stereo not drawn)", ">", 100),
    ("CN(C)CC[C@H](CSc1ccccc1)Nc1ccc(S(=O)(=O)NC(=O)c2ccc(N3CCN(Cc4ccccc4-c4ccc(Cl)cc4)CC3)cc2)cc1[N+](=O)[O-]", "=", 23.6),
    ("COc1ccc(-c2nc(SCC(=O)NNC(=S)Nc3ccccc3)[nH]c2-c2ccc(OC)cc2)cc1", "=", 34.5),
    ("Cc1cccc(C)c1NC(=O)C(Cc1c[nH]c2ccccc12)NC(=O)OCc1ccccc1 (stereo not drawn)", "=", 69.3),
    ("CN(C)CCC(/C=C/c1ccccc1)=N\\Nc1ccccc1", "=", 6.5),
    ("CSc1nc(SC)c2c(C#N)[nH]nc2n1", ">", 100),
    ("C/C(CC(=O)Nc1ccc(C)c(C)c1)=N\\N(c1ccccc1)c1ccccc1", ">", 100),
    ("NC(N)=N/N=C/c1c(Cl)cccc1Cl", ">", 100),
    ("COC(=O)c1ccc2c(c1)C(=O)c1c-2n(CCCN=[N+]=[N-])c(=O)c2cc(OC)c(OC)cc12", ">", 100),
    ("CCOC(=O)c1nc2c(OC)nn(O)cc-2c1[N+](=O)[O-]", "=", 35.2),
    ("CC(C)SC(=S)Sc1c(Cl)c(Cl)nc(Cl)c1Cl", "=", 3.52),
    ("COc1cccc(N2C(Cl)C(=O)C2c2c[nH]c3ccccc23)c1 (stereo not drawn)", ">", 100),
    ("COC(=O)[C@]12CC[C@@H](C)[C@H](C)[C@@H]1C1=CC[C@@H]3[C@@]4(C)C[C@@H](O)[C@H](O)[C@@](C)(CO)C4=CC[C@@]3(C)[C@]1(C)CC2", "=", 37.8),
    ("N#Cc1nn(-c2cc(=O)[nH]c3ccc(Cl)cc23)c(N)c1C#N", ">", 100),
    ("COc1c(O)c2c(=O)cc3c4c5c(cc(=O)c6c(O)c(OC)c(CC(C)O)c(c(c1CC(C)O)c24)c65)OCO3 (stereo not drawn)", "=", 6.63),
    ("O=c1oc2ccc(-c3ccc(F)cc3F)cc2c(=O)n1-c1cccc(C(F)(F)F)c1", "=", 12.8),
    ("COc1cnc2c(c1)C(=O)c1c-2n(CCCN2CCOCC2)c(=O)c2cc(Cl)ccc12", ">", 100),
    ("CC(=O)ON1CCCC(P(=O)(OCCSC(=O)C(C)(C)C)OCCSC(=O)C(C)(C)C)C1=O (stereo not drawn)", "=", 20.5),
    ("C/C(=N\\N=C1/C(=O)OC(c2ccccc2)=C1C(=O)c1ccccc1)c1ccc([N+](=O)[O-])cc1", ">", 100),
    ("O=C(c1ccco1)c1c(C(F)(F)F)nc2ccc(Cl)cc2[n+]1[O-]", ">", 100),
    ("COc1ccc2nc3ccccc3c(NCc3ccc(F)cc3)c2c1", "=", 7.81),
    ("NCCCN1c2ccccc2Sc2ccc(Cl)cc21", ">", 10),
    ("CCCCCCCCCCCCCCCC(=O)OCCOCCOCCOCc1ccccc1", ">", 100),
]
